# target-or-system: MyD88^TIR (Homo sapiens)
# Construct: MyD88 (residues 148–296); 6xHis; made in house; host or cells: E. coli BL21 (DE3)
# Sequence (Q99836 148-296): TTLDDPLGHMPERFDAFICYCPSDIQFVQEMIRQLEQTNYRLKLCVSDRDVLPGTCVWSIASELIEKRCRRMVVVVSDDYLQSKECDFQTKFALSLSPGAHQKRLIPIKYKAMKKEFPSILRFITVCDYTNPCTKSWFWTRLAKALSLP
# assay-name: T‐Surf phage library (P8 and P3) selection against MyD88^TIR, four rounds, NGS read counts
# Type: binding
# measurement-context: P8 library, selection against MyD88 TIR; rank by count after grouping
Below, each entry is listed alongside its reported P8_MyD88 Rank (after).
The response must contain the number and no unit.

WALDLDWFYERLVSLF ... 225
YELDFSHFWLFEGPAG ... 245
PQELEWCYERLVSLIL ... 240
SMMPSSDFWKELALAL ... 217
DPQDLEWFYERLFSLI ... 209
WALNELVEIYQAYKEL ... 273
DPQDLEWFYERLVSLFL ... 244
DWVWDYLLPNLEGPG ... 260

Qu. Value lookup for P8_MyD88 Rank (after); key = "DPQDLVWFYESLVSLF"
Ans. 263

Qu. Fill in: P8_MyD88 Rank (after) of "WDFASNMAQSWDRLYY" is ___
Ans. 246

----------
# target-or-system: MyD88^TIR (Homo sapiens)
# Construct: MyD88 (residues 148–296); 6xHis; made in house; host or cells: E. coli BL21 (DE3)
# assay-name: T‐Surf phage library (P8 and P3) selection against MyD88^TIR, four rounds, NGS read counts
# Format: binding
# measurement-context: P8 library, selection against MyD88, rank before grouping
# P8_MyD88 Rank (before) annotations
// no unit string in output, number only

Recorded P8_MyD88 Rank (before), per entry:
DPLVMVWLYVRPVSLF ... 2609
LGYKRIDWEYFVGIED ... 3354
YASYDDNDYYWDPCAAASS ... 1815
SIWWILNELQEILNYQ ... 3800
DLCDILSQNGIPTFFD ... 2582

Qu. Hello, I am looking for reported P8_MyD88 Rank (before) with MyD88^TIR (Homo sapiens) for "YAASPRWLDDLVNIVG" . Could you help?
Ans. 1754

Qu. What reported P8_MyD88 Rank (before) corresponds to "DRVWDYLLPNLEGQAG" on MyD88^TIR (Homo sapiens)?
Ans. 3073

Qu. # query: P8_MyD88 Rank (before) | item "WALEELRLIMELHSV" | system: MyD88^TIR (Homo sapiens)
Ans. 1525

Qu. Value wanted: P8_MyD88 Rank (before) (MyD88^TIR (Homo sapiens)) of entry "YARSDDNYYYWVTHVLLRHL"
Ans. 1764

----------
# target-or-system: MAL^TIR (Homo sapiens, UniProt P58753)
# Construct: MAL (residues 79–221); 6xHis; made in house; host or cells: E. coli BL21 (DE3)
# Sequence (P58753 79-221): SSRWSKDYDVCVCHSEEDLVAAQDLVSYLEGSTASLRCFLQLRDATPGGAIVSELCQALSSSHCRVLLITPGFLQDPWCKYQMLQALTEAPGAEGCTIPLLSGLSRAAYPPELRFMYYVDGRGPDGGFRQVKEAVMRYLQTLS
# assay-name: T‐Surf phage library (P8 and P3) selection against MAL^TIR, four rounds, NGS read counts
# Format: binding
# measurement-context: P8 library, selection against MAL, rank after grouping
# Protocol: T‐Surf libraries were screened against the immobilized TIR domains of two major human TLR adaptor proteins, MAL^TIR and MyD88^TIR, allowing cross‐species selection of TIR‐binding motifs with 190 946 TIR‐derived peptides in a single binding assay (Scheme 1). Enriched phage pools from the fourth round of selection were analyzed using NGS after barcoding the peptide‐coding regions of the phage pools. […]
readout-label: P8_MAL Rank (after)
Number, no unit, nothing else.

AFLYSLLISLPETANI ... 543
RNLLAYLRWAVANTVI ... 541
AFFWAQLKSTLGETSF ... 567
AFLYPFLINLTHPTIP ... 512
AFLYSFLTNLTHPTEN ... 494
WSLFTVRSVLYAMSPA ... 518
DPKLNTGESIAPELLR ... 493
RNNLMDRLYQALDLLR ... 545
ELDFSHFWLFDGEAGGEP ... 569
YVLHFLLFSRREPEYI ... 487

Turning now to a further record.
Qu. Given the entry "AFFLAQLKSVLGKPTM" , report its measured P8_MAL Rank (after).
Ans. 533
